assay: Pharmacokinetics after intravenous and oral administration in rats; type: in vivo; settings: Rats; iv dosing; dose 1 mg/kg (0.5 for Ex. 1, 10, 11, 35; 0.48 for Ex. 24)
endpoint_label: CL/F (mL/min/kg)

* CC[C@H](Nc1ncnc(N)c1-c1nnc(C)o1)c1nc2cccc(C)c2c(=O)n1-c1ccccc1 [Ex. 38] | 71.3
* CC[C@H](Nc1ncnc(N)c1-c1nc(C)no1)c1nc2cccc(F)c2c(=O)n1-c1ccccc1 [Ex. 39] | 51.8
* CC[C@H](Nc1ncnc(N)c1-c1nc(C)no1)c1nc2cccc(C)c2c(=O)n1-c1ccccc1C (single isomer, unassigned) [Ex. 27] | 61.7
* CC[C@H](Nc1ncnc(N)c1-c1ncc(C)o1)c1nc2cccc(Cl)c2c(=O)n1C1CC1 [Ex. 7] | 54.8
* Cc1nc(-c2c(N)ncnc2N[C@@H](C)c2nc3cccc(Cl)c3c(=O)n2C2CC2)no1 [Ex. 33] | 65.5

====

assay: Pharmacokinetics after intravenous and oral administration in rats; assay type: in vivo; conditions: Rats; iv dosing; dose 1 mg/kg (0.5 for Ex. 1, 10, 11, 35; 0.48 for Ex. 24)
endpoint_label: CL/F (mL/min/kg)

• CC[C@H](Nc1ncnc(N)c1-c1noc(C)n1)c1nc2cccc(C)c2c(=O)n1C1CC1 = 40.3

I: CC[C@H](Nc1ncnc(N)c1-c1nc(C)co1)c1nc2cccc(C)c2c(=O)n1-c1ccccc1C (single isomer, unassigned)
II: CC[C@H](Nc1ncnc(N)c1-c1nc(C)no1)c1nc2cccc(Cl)c2c(=O)n1C1CC1
III: CC[C@H](Nc1ncnc(N)c1-c1nc(C)no1)c1nc2cccc(C)c2c(=O)n1C1CC1
Sort the 3 compounds by CL/F; largest first, smallest last. Order the labels as requested and list them. I, III, II
(I: 130 mL/min/kg, III: 55.8 mL/min/kg, II: 21.5 mL/min/kg)

a: CC[C@H](Nc1ncnc(N)c1-c1noc(C)n1)c1nc2cccc(F)c2c(=O)n1C1CC1
b: Cc1nnc(-c2c(N)ncnc2N[C@@H](C)c2nc3cccc(Cl)c3c(=O)n2C2CC2)o1
Which gives the smaller CL/F number: a or b ? Please respond with the label that marks your chosen entry. b
